target: human A2b receptor subtype (Homo sapiens); construct: expressed in transfected cells; host or cells: HEK293; experiment: Adenosine 2b receptor subtype competition radioligand binding, [3H]DPCPX, HEK293 membranes; conditions: Table 14; read-out: Binding Data K1 (nM) A2B
Sequence (P29275 whole entry): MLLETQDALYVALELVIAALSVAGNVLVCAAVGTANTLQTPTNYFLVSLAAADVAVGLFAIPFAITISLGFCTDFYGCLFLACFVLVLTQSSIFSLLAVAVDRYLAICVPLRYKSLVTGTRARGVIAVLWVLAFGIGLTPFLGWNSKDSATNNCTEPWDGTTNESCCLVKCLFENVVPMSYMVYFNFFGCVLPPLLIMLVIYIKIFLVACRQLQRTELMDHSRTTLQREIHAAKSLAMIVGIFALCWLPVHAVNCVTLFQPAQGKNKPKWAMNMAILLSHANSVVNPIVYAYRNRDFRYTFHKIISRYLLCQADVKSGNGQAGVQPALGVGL
Listing of recorded Ki by entry.

| Smiles structure | Target or test system | Ki (nM) |
| --- | --- | --- |
| CC(=O)NCCNc1nc(-c2ccccc2)nc2[nH]c(COc3ccccc3)cc12 | human A2b receptor subtype (Homo sapiens) | 10.3 |
| CC(=O)NCCNc1nc(-c2ccccc2)nc2[nH]c(COc3ccc(F)cc3)cc12 | human A2b receptor subtype (Homo sapiens) | 8.8 |
